Test system: Echinochloa crus-galli (ECHCG)
Test: Test Example 1, pre-emergence herbicidal test
Assay type: in vivo
Conditions: 480 h, evaluated 20 days later, 100=total damage to plant, 0=no damage to plant
Protocol: Monocotyledonous and dicotyledonous test plants were sown in standard soil in pots. […] The test plants were then grown in a greenhouse under optimum conditions until, 15 days later for post-emergence and 20 days for pre-emergence, the test was evaluated (100=total damage to plant; 0=no damage to plant). […]
Property: pest or weed control at 250 g/ha; scope: individual compounds
State the result as a value with its unit after it.

Please review the following examples before continuing.
> print(dat)
                                   compound  meas.value
1  CCc1ccc(-c2ccc(Cl)cc2)cc1C1=C(O)[C@H]2[C@H]3C=C[C@](OC)(CC3)[C@H]2C1=O (racemic)        100%
2  Cc1cc(C)c(C2=C(O)[C@H]3[C@H]4CC[C@H](CC4)[C@H]3C2=O)c(C)c1         70%
3  CCc1cc(C)cc(CC)c1C1=C(O)[C@@H]2[C@H](C1=O)[C@@H]1CC[C@H]2C1=C(C)C         90%
4  CCc1ccc(-c2ccc(Cl)cc2)cc1C1=C(O)[C@H]2C3CCC(C3=C(C)C)[C@H]2C1=O (some centres unmarked)         30%
5  CCc1cc(C)cc(CC)c1C1=C(O)[C@H]2[C@@H]3CC[C@@H](C(=O)C3)[C@H]2C1=O         70%

Q. Item under review: CCc1cc(C)cc(CC)c1C1=C(O)[C@H]2[C@H]3CC[C@H](CC3)[C@H]2C1=O (racemic) . Reported pest or weed control at 250 g/ha?
A. 100%

Q. Item under review: CCc1cc(C)cc(CC)c1C1=C(O)[C@H]2[C@H]3CC[C@H](C3)[C@H]2C1=O . Reported pest or weed control at 250 g/ha?
A. 100%

Q. Item under review: CCc1cc(C)cc(CC)c1C1=C(O)[C@H]2[C@H]3C=C[C@](OC)(CC3)[C@H]2C1=O . Reported pest or weed control at 250 g/ha?
A. 100%

Q. Item under review: CCc1cc(C)cc(CC)c1C1=C(O)[C@@H]2[C@H](C1=O)[C@H]1CC[C@@H]2C1=C(C)C . Reported pest or weed control at 250 g/ha?
A. 90%

Q. Item under review: Cc1cc(C)c(C2=C(O)[C@H]3[C@H]4CC[C@H](C4)[C@H]3C2=O)c(C)c1 (racemic) . Reported pest or weed control at 250 g/ha?
A. 70%

Q. Item under review: Cc1cc(C)c(C2=C(O)[C@@H]3[C@H](C2=O)[C@@H]2C=C[C@H]3CC2)c(C)c1 . Reported pest or weed control at 250 g/ha?
A. 70%

###

Property: pest or weed control at 250 g/ha; scope: individual compounds
System: Avena fatua (AVEFA)
Experiment: Test Example B, post-emergence herbicidal test
Type: in vivo
Settings: 312 h, evaluated after 13 days, 100=total damage to plant, 0=no damage to plant
Numeric answer only, unit % assumed.

Please review the following examples before continuing.
> print(dat)
                                   compound  units  meas.value
1  CCc1ccc(-c2c(F)cc(Cl)cc2Cl)cc1C1=C(O)[C@H]2[C@H]3CC[C@H](CC3)[C@H]2C1=O      %          40
2  CCc1ccc(-c2cc(Cl)sc2Cl)cc1C1=C(O)[C@H]2[C@H]3CC[C@H](CC3)[C@H]2C1=O      %          30
3  CCc1ccc(-c2ccc(Cl)s2)cc1C1=C(O)[C@H]2[C@H]3CC[C@H](C3)[C@H]2C1=O      %          80
4  CCc1ccc(-c2ccc(Cl)cc2C)cc1C1=C(O)[C@H]2[C@H]3CC[C@H](CC3)[C@H]2C1=O      %          40

Q. Item under review: CCc1ccc(-c2ccc(Cl)cc2Cl)cc1C1=C(O)[C@H]2[C@H]3CC[C@H](CC3)[C@H]2C1=O . Reported pest or weed control at 250 g/ha?
A. 100

Q. Item under review: CCc1ccc(-c2ccc(Cl)cc2)cc1C1=C(O)[C@H]2[C@H]3CC[C@H](CC3)[C@H]2C1=O (racemic) . Reported pest or weed control at 250 g/ha?
A. 90
